The following compounds are listed with their measured inhibition of growth at 100 µM values.
System: PC-3
Assay: Cytotoxicity against human PC3 cells assessed as growth inhibition at 100 uM after 48 hrs by MTT assay relative to control
Type: functional
Details: PC-3, 48 h, read-out: GI
MEASUREMENT NAME: inhibition of growth at 100 µM

smiles_structure=Cc1cccc2c1NC(=O)/C2=C1\SC(=S)NC1=O measured_target=PC-3 observed_value="< 10%"
smiles_structure=Nc1ccc2c(c1)/C(=C\c1ccco1)C(=O)N2 measured_target=PC-3 observed_value="< 10%"
smiles_structure=O=C1Nc2ccc(F)cc2/C1=C/c1c[nH]nc1-c1ccccc1 measured_target=PC-3 observed_value="< 10%"
smiles_structure=O=C1Nc2ccccc2/C1=C/c1ccco1 measured_target=PC-3 observed_value="< 10%"
smiles_structure=CCc1cccc2c1NC(=O)/C2=C1\SC(=S)NC1=O measured_target=PC-3 observed_value=40.9%

====

Target: Ribosomal protein S6 kinase alpha-3 (Homo sapiens, UniProt P51812)
Sequence (P51812 whole entry): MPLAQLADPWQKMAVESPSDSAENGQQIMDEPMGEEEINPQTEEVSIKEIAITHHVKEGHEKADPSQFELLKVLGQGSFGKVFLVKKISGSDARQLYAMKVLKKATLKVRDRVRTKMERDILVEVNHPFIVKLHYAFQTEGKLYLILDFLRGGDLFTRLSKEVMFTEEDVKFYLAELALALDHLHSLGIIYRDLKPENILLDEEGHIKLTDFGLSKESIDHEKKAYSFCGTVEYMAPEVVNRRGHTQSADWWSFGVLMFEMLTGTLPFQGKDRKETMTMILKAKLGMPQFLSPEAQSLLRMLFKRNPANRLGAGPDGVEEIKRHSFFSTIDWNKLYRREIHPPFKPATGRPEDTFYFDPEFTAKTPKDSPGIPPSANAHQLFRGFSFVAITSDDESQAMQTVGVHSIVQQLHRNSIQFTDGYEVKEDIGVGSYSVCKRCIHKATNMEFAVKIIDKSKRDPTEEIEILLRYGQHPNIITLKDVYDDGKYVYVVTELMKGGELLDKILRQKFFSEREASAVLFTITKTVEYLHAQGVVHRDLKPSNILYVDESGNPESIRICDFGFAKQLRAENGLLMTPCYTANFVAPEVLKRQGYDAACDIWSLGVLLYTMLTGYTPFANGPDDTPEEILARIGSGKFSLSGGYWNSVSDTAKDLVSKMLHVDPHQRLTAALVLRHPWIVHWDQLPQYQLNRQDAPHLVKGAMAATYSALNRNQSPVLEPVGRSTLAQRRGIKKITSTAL
Assay: Inhibition of RSK2 (unknown origin)
MEASUREMENT NAME: IC50 (µM)

smiles_structure=O=C1Nc2ccccc2/C1=C/c1ccco1 measurement_name=IC50 observed_value=7.76

====

Target: Mitogen-activated protein kinase 14 (Homo sapiens, UniProt Q16539)
Sequence (Q16539 whole entry): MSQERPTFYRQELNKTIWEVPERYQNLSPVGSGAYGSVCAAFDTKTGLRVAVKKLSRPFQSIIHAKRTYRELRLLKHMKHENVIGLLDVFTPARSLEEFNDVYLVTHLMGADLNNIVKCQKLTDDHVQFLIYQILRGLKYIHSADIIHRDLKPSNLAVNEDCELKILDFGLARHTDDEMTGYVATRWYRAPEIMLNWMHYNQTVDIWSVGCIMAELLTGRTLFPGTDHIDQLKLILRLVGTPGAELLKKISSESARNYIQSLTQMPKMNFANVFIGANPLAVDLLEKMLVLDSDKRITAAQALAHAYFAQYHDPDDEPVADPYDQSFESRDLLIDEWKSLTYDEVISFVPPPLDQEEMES
Experiment: Inhibition of p38alpha (unknown origin) after 10 mins by mobility shift assay
MEASUREMENT NAME: IC50 (nM)

smiles_structure=O=C1Nc2ccccc2/C1=C/c1c[nH]nc1-c1ccccc1[N+](=O)[O-] observed_value=11
